- procedure-details: 6 month dry powder stability, HPLC assay
- Assay type: physicochemical
- assay-setup: 2-8 ° C., 0 months
reported-endpoint: HPLC assay (% w/w on anhydrous and solvent free basis) (% w/w)
Answers are plain numbers, in % w/w.

Worked cases, answers included:
C[C@H](NP(=O)(OC[C@H]1O[C@@H](n2cc(F)c(=O)[nH]c2=O)CC1O)Oc1cccc2ccccc12)C(=O)OCc1ccccc1 (stereo partly shown) [Example 3, Batch 1]    100.4
C[C@H](NP(=O)(OC[C@H]1O[C@@H](n2cc(F)c(=O)[nH]c2=O)CC1O)Oc1cccc2ccccc12)C(=O)OCc1ccccc1 (stereo partly shown) [Example 3, Batch 2]    100.2
C[C@H](NP(=O)(OC[C@H]1O[C@@H](n2cc(F)c(=O)[nH]c2=O)CC1O)Oc1cccc2ccccc12)C(=O)OCc1ccccc1 (stereo partly shown) [Example 3, Batch 3]    100.3

Now, please, on to the next compound.
Problem: Given the entry C[C@H](NP(=O)(OC[C@H]1O[C@@H](n2cc(F)c(=O)[nH]c2=O)CC1O)Oc1cccc2ccccc12)C(=O)OCc1ccccc1 (stereo partly shown) [Comparative Example 4] , report its measured HPLC assay (% w/w on anhydrous and solvent free basis).
Result: 100
